- target: T1, Synthetic peptide (GVTSAPDTRPAPGSTAPPAH)2
- T1 peptide: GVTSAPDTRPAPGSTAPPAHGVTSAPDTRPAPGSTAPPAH
- assay: ELISA on coated peptide, antibody 0.01 mg/ml, mean of 3
property: ELISA absorbance at 450 nm (absorbance)
# output: bare number, implied unit absorbance

QUERY: Entry M7 (antibody, human IgG1, kappa, V domains shown, Human IgG) VH: EVQLVESGGGLVQPGGSLRLSCAASGFTVSSNYMSWVRQAPGKGLEWVSVIYSGGSTYYADSVKGRFTISRDNSKNTLYLQMNSLRAEDTAVYYCARGSTNTYYYDSSGHPWGQGTMVTVSS VL: DIVMTQSPLSLPATPGEPASISCRSSQSLLHSNGYTYLDWYLQKPGQSPQVLIYLASNRASGVPDRFSGSGSGTNFTLKISRVEAEDVGLFYCMQALQTPQTFGQGTKLEIKR : reported ELISA absorbance at 450 nm = ?
RESULT: 3.5

Values were extracted from patent US20160145343A1.
